- experimental-system: human Gal-1 (hGal-1)
- Sequence (P09382 2-135 limits assumed): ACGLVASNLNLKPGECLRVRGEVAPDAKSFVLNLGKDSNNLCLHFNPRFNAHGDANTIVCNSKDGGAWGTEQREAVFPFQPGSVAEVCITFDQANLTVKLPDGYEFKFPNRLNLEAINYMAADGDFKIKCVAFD
- protocol-description: Competitive binding assay: binding of biotinylated hGal-1 to microplate-adsorbed asialofetuin (ASF)
- experimental-conditions: Activities on hGal-1; mean values of several measurements
metric-name: IC50 (µM)

As a guide, the following entries are already answered.
1. CO[C@@H]1[C@@H](n2cc(-c3cc(F)c(F)c(F)c3)nn2)[C@@H](O)[C@@H](CO)O[C@@H]1CC1CC(C2CCCC2)=NO1 (stereo partly drawn)	3.55
2. CO[C@@H]1[C@@H](n2cc(-c3cc(F)c(F)c(F)c3)nn2)[C@@H](O)[C@@H](CO)O[C@@H]1CC1CN(C2CCN(C(=O)C(C)C)CC2)C(=O)O1 (mixture of isomers)	0.28
3. OC[C@H]1O[C@H](CC2CC(c3cn[nH]c3)=NO2)[C@H](O)[C@@H](n2cc(-c3cc(F)c(F)c(F)c3)nn2)[C@H]1O (stereo partly drawn)	6.54

[P] CO[C@@H]1[C@@H](n2cc(-c3cc(F)c(F)c(F)c3)nn2)[C@@H](O)[C@@H](CO)O[C@@H]1Cc1cc(C2CCN(C(=O)NC3CC3)CC2)on1
[Q] CO[C@@H]1[C@@H](n2cc(-c3ccc(C)c(F)c3F)nn2)[C@@H](O)[C@@H](CO)O[C@@H]1Cc1cc(C2(O)CCCC2)on1
[R] CC(C)(C)OC(=O)N1CCC(C2=NOC(C[C@H]3O[C@H](CO)[C@H](O)[C@H](n4cc(-c5cc(F)c(F)c(F)c5)nn4)[C@H]3OCC(=O)N3CCOCC3)C2)CC1 (mixture of isomers)
Query: Rank items: key IC50, increasing. A complete answer lists every label in the requested sequence.
Reply: P, R, Q
(P: 0.98 µM, R: 2.77 µM, Q: 6.44 µM)

====

- experimental-system: human Gal-1 (hGal-1)
- protocol-description: Competitive binding assay: binding of biotinylated hGal-1 to microplate-adsorbed asialofetuin (ASF)
- experimental-conditions: Activities on hGal-1; mean values of several measurements
pIC50: −log10 of the molar value.
metric-name: pIC50

Worked set:
1. CO[C@@H]1[C@@H](n2cc(-c3ccc(C)c(F)c3F)nn2)[C@@H](O)[C@@H](CO)O[C@@H]1Cc1cc(C2(O)CCCCC2)on1	5.43
2. CO[C@@H]1[C@@H](n2cc(-c3ccc(C)c(F)c3F)nn2)[C@@H](O)[C@@H](CO)O[C@@H]1Cc1cc(C2(C)CCCC2)no1	5.24
3. CO[C@@H]1[C@@H](n2cc(-c3ccc(C)c(F)c3F)nn2)[C@@H](O)[C@@H](CO)O[C@@H]1Cc1cc(C(C)(O)c2ccccc2)on1 (stereo partly drawn) [Ex 1.339]	5.00
4. CO[C@@H]1[C@@H](n2cc(-c3cc(F)c(F)c(F)c3)nn2)[C@@H](O)[C@@H](CO)O[C@@H]1Cc1cn(C2CCSCC2)nn1	5.41
5. CCOC(=O)CC(C)(C)c1cc(C[C@H]2O[C@H](CO)[C@H](O)[C@H](n3cc(-c4cc(F)c(F)c(F)c4)nn3)[C@H]2OC)on1	5.79

[a] CO[C@@H]1[C@@H](n2cc(-c3cc(F)c(F)c(F)c3)nn2)[C@@H](O)[C@@H](CO)O[C@@H]1CC1CC(C2CCN(C(=O)OC(C)(C)C)CC2)=NO1 (stereo partly drawn)
[b] CO[C@@H]1[C@@H](n2cc(-c3cc(F)c(F)c(F)c3)nn2)[C@@H](O)[C@@H](CO)O[C@@H]1Cc1cc(C2CCN(C(=O)OC(C)(C)C)CC2)no1
[c] CO[C@@H]1[C@@H](n2cc(-c3cc(F)c(F)c(F)c3)nn2)[C@@H](O)[C@@H](CO)O[C@@H]1CC1CC(c2cc[nH]c(=O)c2)=NO1 (mixture of isomers)
Query: List by increasing pIC50. Form field (ranking): labels in requested order.
Reply: a, b, c
(a: 6.00, b: 6.35, c: 6.59)

[P] CCOC(=O)N1CCC(c2cc(C[C@H]3O[C@H](CO)[C@H](O)[C@H](n4cc(-c5cc(F)cc(Cl)c5)nn4)[C@H]3OC)no2)CC1
[Q] CO[C@@H]1[C@@H](n2cc(-c3ccc(C)c(F)c3F)nn2)[C@@H](O)[C@@H](CO)O[C@@H]1Cc1cc(C(C)(O)c2ccccc2)on1 (stereo partly drawn) [Ex 1.318]
Query: Lowest pIC50? choose P or Q Field: selected label. Fill in the label of the entry you choose.
Reply: Q
(Q: 5.05, P: 5.82)

[P] CO[C@@H]1[C@@H](n2cc(-c3ccc(F)c(F)c3F)nn2)[C@@H](O)[C@@H](CO)O[C@@H]1Cc1cc(C2(O)CCC2)on1
[Q] CC(C)(C)OC(=O)N1CCC(C2CC(C[C@H]3O[C@H](CO)[C@H](O)[C@H](n4cc(-c5cc(F)c(F)c(F)c5)nn4)[C@H]3O)=NO2)CC1 (stereo partly drawn)
Query: Return label of the item with the larger pIC50. Candidates: P , Q . Which one? Tell me its label.
Reply: P
